Data provenance is patent EP0728738A1.

# collection of IC50 values tested on Human Melatonin Receptor ML1A (Homo sapiens)
# Sequence (P48039 whole entry): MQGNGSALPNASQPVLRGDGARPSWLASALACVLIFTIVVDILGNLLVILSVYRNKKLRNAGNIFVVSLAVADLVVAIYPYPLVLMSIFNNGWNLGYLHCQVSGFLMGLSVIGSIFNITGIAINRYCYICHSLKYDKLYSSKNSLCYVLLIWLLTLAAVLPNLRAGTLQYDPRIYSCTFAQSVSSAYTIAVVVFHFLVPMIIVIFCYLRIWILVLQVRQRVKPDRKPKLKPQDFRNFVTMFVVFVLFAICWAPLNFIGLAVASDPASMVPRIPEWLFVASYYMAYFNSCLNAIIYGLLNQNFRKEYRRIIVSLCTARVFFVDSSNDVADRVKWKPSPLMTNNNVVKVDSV

Study these solved cases before continuing.
compound | test value
COCC(=O)NCCC1CCCc2ccc(OC)cc21 (single isomer, unassigned; (-)) | < 0.1 µM
CCCC(=O)NCCC1CCc2ccc(OC(F)F)cc21 (stereo not shown) | < 0.1 µM
CCCCCCCCCCCCOc1ccc2c(c1)C(CCNC(=O)CCC)CC2 (stereo not shown) | < 0.1 µM

Now examine the next entry.
What measured IC50 goes with CCCC(=O)NCCC1CCc2ccc(OC)cc21 (single isomer, unassigned; (+)) ?
0.1 to 0.5 µM
